- tested.target: cIAP2-BIR3 (Homo sapiens, UniProt Q13489)
- Construct: cIAP2-BIR3
- Sequence (Q13489 238-349 limits assumed): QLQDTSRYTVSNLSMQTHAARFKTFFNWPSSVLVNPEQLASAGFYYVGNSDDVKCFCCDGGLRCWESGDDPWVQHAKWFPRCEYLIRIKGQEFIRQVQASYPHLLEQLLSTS
- assay.overview: cIAP2-BIR3 fluorescence polarization binding assay
- experimental.context: FP, probe AbuRPFK-5FAM (SM5F) 5 nM, cIAP2-BIR3 80 nM, 60 min at 25° C.
measured.attribute: IC50

INSERT INTO results (smiles_notation, tested_target, experimental_result) VALUES
  ('CN[C@@H](C)C(=O)N[C@@H](C)C(=O)N1CCC[C@H]1C(=O)N[C@@H]1CCCc2c(-c3cccc4c3CCC[C@H]4NC(=O)[C@@H]3CCCN3C(=O)[C@H](C)NC(=O)[C@H](C)NC)cccc21', 'cIAP2-BIR3 (Homo sapiens, UniProt Q13489)', '10 to 100 nM'),
  ('CN[C@@H](C)C(=O)N[C@H](C(=O)N1CCC[C@H]1C(=O)N[C@@H]1CCCc2c(Oc3cccc4c3CCC[C@H]4NC(=O)[C@@H]3CCCN3C(=O)[C@@H](NC(=O)[C@H](C)NC)C3CCOCC3)cccc21)C1CCOCC1', 'cIAP2-BIR3 (Homo sapiens, UniProt Q13489)', '10 to 100 nM'),
  ('CN[C@@H](C)C(=O)N[C@H](C(=O)N1CCC[C@H]1C(=O)N[C@@H]1CCc2c(-c3cccc4c3CC[C@H]4NC(=O)[C@@H]3CCCN3C(=O)[C@@H](NC(=O)[C@H](C)NC)C3CCCCC3)cccc21)C1CCCCC1', 'cIAP2-BIR3 (Homo sapiens, UniProt Q13489)', '10 to 100 nM'),
  ('CC[C@H](NC(=O)[C@H](C)NC)C(=O)N1CCC[C@H]1C(=O)N[C@@H]1CCCc2c(-c3cccc(-c4cccc5c4CCC[C@H]5NC(=O)[C@@H]4CCCN4C(=O)[C@H](CC)NC(=O)[C@H](C)NC)c3)cccc21', 'cIAP2-BIR3 (Homo sapiens, UniProt Q13489)', '10 to 100 nM'),
  ('CN[C@@H](C)C(=O)N[C@H](C(=O)N1CCC[C@@H]1C(=O)N[C@@H]1CCCc2ccc(-c3ccc(-c4ccc5c(c4)[C@H](NC(=O)[C@@H]4CCCN4C(=O)[C@@H](NC(=O)[C@H](C)NC)C4CCCCC4)CCC5)cc3)cc21)C1CCCCC1', 'cIAP2-BIR3 (Homo sapiens, UniProt Q13489)', '100 to 1000 nM'),
  ('CN[C@@H](C)C(=O)N[C@H](C(=O)N1CCC[C@H]1C(=O)N[C@@H]1CCCc2c(-c3cccc(-c4cccc5c4CCC[C@H]5NC(=O)[C@@H]4CCCN4C(=O)[C@@H](NC(=O)[C@H](C)NC)C(C)C)c3)cccc21)C(C)C', 'cIAP2-BIR3 (Homo sapiens, UniProt Q13489)', '10 to 100 nM'),
  ('CN[C@@H](C)C(=O)N[C@H](C(=O)N1CCC[C@H]1C(=O)N[C@@H]1CCOc2c(-c3cccc4c3OCC[C@H]4NC(=O)[C@@H]3CCCN3C(=O)[C@@H](NC(=O)[C@H](C)NC)C3CCOCC3)cccc21)C1CCOCC1', 'cIAP2-BIR3 (Homo sapiens, UniProt Q13489)', '10 to 100 nM'),
  ('CN[C@@H](C)C(=O)N[C@H](C(=O)N1CCC[C@H]1C(=O)N[C@@H]1CCCc2cc(-c3ccc(-c4ccc5c(c4)CCC[C@H]5NC(=O)[C@@H]4CCCN4C(=O)[C@@H](NC(=O)[C@H](C)NC)C4CCCCC4)cc3)ccc21)C1CCCCC1', 'cIAP2-BIR3 (Homo sapiens, UniProt Q13489)', '100 to 1000 nM'),
  ('CN[C@@H](C)C(=O)N[C@H](C(=O)N1CCC[C@H]1C(=O)N[C@@H]1CCOc2c(-c3cccc4c3OCC[C@H]4NC(=O)[C@@H]3CCCN3C(=O)[C@@H](NC(=O)[C@H](C)NC)C(C)(C)C)cccc21)C(C)(C)C', 'cIAP2-BIR3 (Homo sapiens, UniProt Q13489)', '10 to 100 nM'),
  ('CN[C@@H](C)C(=O)N[C@H](C(=O)N1C[C@@H](O)C[C@H]1C(=O)N[C@@H]1CCCc2c(OCCCCCOc3cccc4c3CCC[C@H]4NC(=O)[C@@H]3C[C@H](O)CN3C(=O)[C@@H](NC(=O)[C@H](C)NC)C3CCCCC3)cccc21)C1CCCCC1', 'cIAP2-BIR3 (Homo sapiens, UniProt Q13489)', '10 to 100 nM'),
  ('CN[C@@H](C)C(=O)N[C@H](C(=O)N1CCC[C@H]1C(=O)N[C@@H]1CCCc2ccc(N3CCN(c4ccc5c(c4)[C@H](NC(=O)[C@@H]4CCCN4C(=O)[C@@H](NC(=O)[C@H](C)NC)C4CCCCC4)CCC5)CC3)cc21)C1CCCCC1', 'cIAP2-BIR3 (Homo sapiens, UniProt Q13489)', '100 to 1000 nM'),
  ('CN[C@@H](C)C(=O)N[C@H](C(=O)N1C[C@@H](O)C[C@H]1C(=O)N[C@@H]1CCCc2c(-c3ccc(-c4cccc5c4CCC[C@H]5NC(=O)[C@@H]4C[C@H](O)CN4C(=O)[C@@H](NC(=O)[C@H](C)NC)C4CCCCC4)cc3)cccc21)C1CCCCC1', 'cIAP2-BIR3 (Homo sapiens, UniProt Q13489)', '1 to 10 nM'),
  ('CN[C@@H](C)C(=O)N[C@H](C(=O)N1CCC[C@H]1C(=O)N[C@@H]1CCCc2c(NC(=O)c3cccc4c3CCC[C@H]4NC(=O)[C@@H]3CCCN3C(=O)[C@@H](NC(=O)[C@H](C)NC)C3CCCCC3)cccc21)C1CCCCC1', 'cIAP2-BIR3 (Homo sapiens, UniProt Q13489)', '1 to 10 nM'),
  ('CN[C@@H](C)C(=O)N[C@H](C(=O)N1CCC[C@H]1C(=O)N[C@@H]1CCCc2c(NC(=O)c3cccc4c3CCC[C@H]4NC(=O)[C@@H]3CCCN3C(=O)[C@@H](NC(=O)[C@H](C)NC)C3CCOCC3)cccc21)C1CCOCC1', 'cIAP2-BIR3 (Homo sapiens, UniProt Q13489)', '10 to 100 nM'),
  ('CN[C@@H](C)C(=O)N[C@H](C(=O)N1CCC[C@H]1C(=O)N[C@@H]1CCCc2c(OC/C=C/COc3cccc4c3CCC[C@H]4NC(=O)[C@@H]3CCCN3C(=O)[C@@H](NC(=O)[C@H](C)NC)C3CCCCC3)cccc21)C1CCCCC1', 'cIAP2-BIR3 (Homo sapiens, UniProt Q13489)', '10 to 100 nM'),
  ('CN[C@@H](C)C(=O)N[C@H](C(=O)N1CCC[C@H]1C(=O)N[C@@H]1CCCc2c(OCc3ccc(COc4cccc5c4CCC[C@H]5NC(=O)[C@@H]4CCCN4C(=O)[C@@H](NC(=O)[C@H](C)NC)C4CCCCC4)cc3)cccc21)C1CCCCC1', 'cIAP2-BIR3 (Homo sapiens, UniProt Q13489)', '100 to 1000 nM');
